Each entry below lists one item and its recorded Growth Rate value.
Test system: Fibroblast
Test: Incucyte cell viability with human fibroblast; further: unitless GR value; below 1 slowed growth and below 0 cell loss
Type: toxicity, cell-based
Conditions: 12 h, 10 µM, compound concentration 10 uM, replicate number 2
quantityKind: Growth Rate

smilesRepr | target | quantityKind | measurement
N#C/C(=C\c1ccc(O)c(O)c1)C(=O)OCCc1cccs1 | Fibroblast | Growth Rate | 0.78
N#Cc1cccc(-c2nc(-c3cccnc3)no2)c1 | Fibroblast | Growth Rate | 0.88
COCCc1ccc(-c2c(C)nc3c(N4CCOCC4)ccnn23)cn1 | Fibroblast | Growth Rate | 0.81

====

Each entry below lists one item and its recorded Growth Rate value.
Tested on: U2OS
Test: Incucyte cell viability with U2OS; further: unitless GR value; below 1 slowed growth and below 0 cell loss
Format: toxicity, cell-based
Conditions: human, 0 h, 10 µM, compound concentration 10 uM, replicate number 1

molecule | target | Growth Rate
COc1cc2c(NC3CCN(C(C)C)CC3)nc(C3CCCCC3)nc2cc1OCCCN1CCCC1 | U2OS | -0.98
CCN1C(=O)N(c2c(F)c(OC)cc(OC)c2F)Cc2cnc3[nH]c(CN4CCOCC4)cc3c21 | U2OS | -0.31
Cc1nn(-c2nc3ccc(Cl)c(Cl)c3[nH]2)c(O)c1C1OC(=O)c2ccccc21 (stereo not drawn) | U2OS | 0.81
C[C@@H](CN1CC[C@@]2(C)c3cccc(O)c3C[C@@H]1C2(C)C)OCc1ccccc1.Cl | U2OS | -0.32
COc1ccc(-c2cc3c(C)nc(N)nc3n([C@H]3CC[C@H](OCCO)CC3)c2=O)cn1 | U2OS | -0.97
Cc1c(N2CCNCC2)nc2ccc(Br)cc2c1C(=O)NC[C@H](CCC(=O)O)c1ccccc1Cl | U2OS | -0.04
O=C(Nc1ccc(Cl)nc1)c1ccc(Cl)cc1 | U2OS | -0.12
CCCN1C(=O)c2ccc(Cl)cc2Nc2ncccc21 | U2OS | 0.38
COc1cc(C(=O)NC2CCN(C)CC2)ccc1Nc1ncc(C(F)(F)F)c(NCc2ccc(C)cc2N(C)S(C)(=O)=O)n1.O=CO.O=CO | U2OS | -0.98
CCOC(=O)N1CCC(CN(Cc2ccc(Cl)cc2)Cc2ccc([N+](=O)[O-])s2)C1 (stereo not drawn) | U2OS | -0.35
CC(C)(O)[C@H]1CC[C@H](Nc2ccc3ncc(-c4cccc(C(F)(F)F)c4)n3n2)CC1 | U2OS | -0.52
CCNC1=N[C@@H]2[C@@H](O)[C@H](O)[C@@H](CO)O[C@@H]2S1 | U2OS | -0.37
Cc1c(-c2c(F)cc(C(N)=O)c3[nH]c4c(c23)CC[C@H](C(C)(C)O)C4)cccc1-n1c(=O)c2cccc(F)c2n(C)c1=O | U2OS | 0.59
CCN(C(=O)c1cc(F)ccc1Oc1cncnc1N1CC2(CCN(C[C@H]3CC[C@H](NS(=O)(=O)CC)CC3)CC2)C1)C(C)C | U2OS | 0.19
Cc1onc(O)c1CC(N)C(=O)O [(R,S)-AMPA] | U2OS | -0.22
Cl.O=S(=O)(c1cccc2c(I)cccc12)N1CCCNCC1 | U2OS | -1
CN(C)C(=O)Cn1cc(-c2ccc(-c3nnc4ccccn34)cc2)cn1 | U2OS | 0.43
COCc1nc2cnc3cc(-c4c(C)noc4C)c(OC[C@H]4CCNC4)cc3c2n1[C@H](C)c1ccccc1 | U2OS | 0.09
CCN1CCN(Cc2ccc(NC(=O)c3ccc(C)c(Oc4ccnc5[nH]ccc45)c3)cc2C(F)(F)F)CC1.Cl.Cl.Cl.O | U2OS | -0.12
CCC(=O)Nc1cc(Nc2cc(NC3CC3)n3ncc(C#N)c3n2)ccc1C | U2OS | -1
CC(C)Oc1ccc(-c2cnc3c(-c4ccnc5ccccc45)cnn3c2)cc1 | U2OS | -0.36
O=C(CNCc1cc2ccccc2[nH]1)N[C@H]1CC[C@@H](c2nc3ccccc3[nH]2)CC1 | U2OS | -0.05
CN(C(=O)c1ccccc1)c1ccc2c(c1)nc(NC(=O)c1ccc(Br)s1)n2CCC(N)=O | U2OS | -1
